The reported numbers originate from PubChem BioAssay.

Measurement notes: changes in parasitized red cell lysis, either direction – P. falciparum Indochina, OD700, 3 h, PSAC antagonist project, primary screen (AID 1156)
Test conditions: P. falciparum-infected erythrocytes, osmotic lysis, higher = more signal, called active from +8 up or from −8 down
Note to self: values exactly at 1 are Fulfilled. So z-score at or above 1 is Fulfilled, below is Not fulfilled.

See these solved cases before continuing.
Could you tell me if the measured z-score of [N-]=[N+]=Nc1ccccc1C[C@]1(C(=O)O)COC(c2ccc(OCCCO)cc2)=N1 reaches 1 or more?
Fulfilled

Could you tell me if the measured z-score of Cc1ccc(S[C@]2(C(=O)NCC(F)(F)F)CC(=O)N(Cc3cc(C(F)(F)F)cc(C(F)(F)F)c3)[C@@H]2c2ccc(CO)cc2I)cc1 reaches 1 or more?
Fulfilled

Could you tell me if the measured z-score of O=C1C[C@]2(c3ccc([N+](=O)[O-])cc3)C(=O)N(C3CC3)c3cc(CO)ccc3[C@H]2N1CC12CC3CC(CC(C3)C1)C2 reaches 1 or more?
Not fulfilled

Further cases:
Could you tell me if the measured z-score of CCCCNC(=O)c1ccc(C#CC(C)(C)C)c(OC(C)=O)c1 reaches 1 or more?
Fulfilled

Could you tell me if the measured z-score of CN(C)CCCCCCNC(=O)[C@@H]1C[C@@H]2C(=O)N3CCC[C@H]3C(=O)N2[C@@H]1c1cccc(OCCO)c1 reaches 1 or more?
Not fulfilled
